Taken from paper PMC8277928.

In this section we review reported IC50 values for a set of compounds.
Test system: A2780cisR cisplatin-resistant ovarian carcinoma cells
Experiment: MTT cytotoxicity (chemosensitivity) assay, 96 h
Format: cell-based, human
Settings: Homo sapiens, A2780cisR; 96 h incubation, MTT, 37°C, 5% CO2; read-out: IC50 values (μM) ± SD, A2780cisR

{"Mol smiles": "Nc1ccccc1NC(=O)c1cccc(C(=O)Nc2ccccc2N)n1", "Result value": "61 µM"}
{"Mol smiles": "CC(C)(C)OC(=O)Nc1ccccc1NC(=O)c1cccc(C(=O)Nc2ccccc2NC(=O)OC(C)(C)C)n1", "Result value": "> 100 µM"}

Lab note: next compound to report on.
Prompt line: Param request: IC50 | system A2780cisR cisplatin-resistant ovarian carcinoma cells | item `CC(=O)Nc1ccccc1NC(=O)c1cccc(C(=O)Nc2ccccc2NC(C)=O)n1`
Response line: > 100 µM
